Numbers sourced from paper PMC3346935.

Test system: RNA 25 (RNA, aptamer) GGCAAGUACUCUGACGCCGAAGCCAGCCGGCGAUUGGGAACGACGGAAUUCCUCACUUCUGUUAAAGGUCAACCAGGGCGUAGAGGAGGACAGCG
Assay: isocratic affinity elution from His–Phe–Sepharose
Settings: 600 mM NaCl, 5 mM MgCl2, 5 mM CaCl2; 50 mM HEPES pH 7.0
Residues, ends and D or L forms follow the SMILES beside them.
assay readout: K D (mM)

a: N[C@@H](Cc1c[nH]cn1)C(=O)NCC(=O)O (H-His-Gly-OH)
b: N[C@@H](Cc1cnc[nH]1)C(=O)N[C@@H](Cc1ccccc1)C(=O)O (H-His-Phe-OH)
Response body: label of entry with the larger K D; valid values a , b . API: response body contains the label of the selected item.
a
(a: 8.2 mM, b: 0.036 mM)
